Test system: NCI-H2009
Assay: relative viability (nuclei count vs DMSO), 5 days (fraction); higher = more cells survive
Conditions: first compound 0.02 µM
measurementType: relative viability

CCNC(=O)c1noc(-c2cc(C(C)C)c(O)cc2O)c1-c1ccc(CN2CCOCC2)cc1 [Luminespib] + COc1cc2c(Oc3ccc(NC(=O)C4(C(=O)Nc5ccc(F)cc5)CC4)cc3F)ccnc2cc1OCCCN1CCOCC1 [Foretinib] (partner 0.25 µM) ... 1.33
CN1CCN(CCOc2cc(OC3CCOCC3)c3c(Nc4c(Cl)ccc5c4OCO5)ncnc3c2)CC1 [Saracatinib] + C[C@]1(O)C[C@@H](c2nc(-c3ccc4ccc(-c5ccccc5)nc4c3)c3c(N)nccn32)C1 [Linsitinib] (partner 1 µM) ... 1.19
CCNC(=O)c1noc(-c2cc(C(C)C)c(O)cc2O)c1-c1ccc(CN2CCOCC2)cc1 [Luminespib] + COc1cccc2cc(-c3nc([C@H]4CC[C@H](C(=O)O)CC4)n4ncnc(N)c34)[nH]c12 [OSI-027] (partner 0.5 µM) ... 0.518
CCNC(=O)c1noc(-c2cc(C(C)C)c(O)cc2O)c1-c1ccc(CN2CCOCC2)cc1 [Luminespib] + O=C(CCCCCCC(=O)Nc1ccccc1)NO [Vorinostat] (partner 1 µM) ... 0.705
CCNC(=O)c1noc(-c2cc(C(C)C)c(O)cc2O)c1-c1ccc(CN2CCOCC2)cc1 [Luminespib] + O=C(c1cc(Cc2n[nH]c(=O)c3ccccc23)ccc1F)N1CCN(C(=O)C2CC2)CC1 [Olaparib] (partner 8 µM) ... 0.701

For every item below, please supply its relative viability.
1. CN1CCN(CCOc2cc(OC3CCOCC3)c3c(Nc4c(Cl)ccc5c4OCO5)ncnc3c2)CC1 [Saracatinib] + CC1(C)CCC(c2ccc(Cl)cc2)=C(CN2CCN(c3ccc(C(=O)NS(=O)(=O)c4ccc(N[C@H](CCN5CCOCC5)CSc5ccccc5)c(S(=O)(=O)C(F)(F)F)c4)cc3)CC2)C1 [Navitoclax] (partner 0.5 µM)
2. CN1CCN(CCOc2cc(OC3CCOCC3)c3c(Nc4c(Cl)ccc5c4OCO5)ncnc3c2)CC1 [Saracatinib] + COc1cccc2cc(-c3nc([C@H]4CC[C@H](C(=O)O)CC4)n4ncnc(N)c34)[nH]c12 [OSI-027] (partner 0.5 µM)

// result
1. 1.15
2. 0.628

// query System NCI-H2009. Read-out relative viability. Item CN1CCN(CCOc2cc(OC3CCOCC3)c3c(Nc4c(Cl)ccc5c4OCO5)ncnc3c2)CC1 [Saracatinib] + CC(C)C[C@H](NC(=O)[C@H](Cc1ccccc1)NC(=O)c1cnccn1)B(O)O [Bortezomib] (partner 0.002 µM) . Report value.
// result 1.01
